Molecular target: prolyl-endopeptidase in rat cerebral cortex (Rattus norvegicus)
Sequence (O70196 1-710): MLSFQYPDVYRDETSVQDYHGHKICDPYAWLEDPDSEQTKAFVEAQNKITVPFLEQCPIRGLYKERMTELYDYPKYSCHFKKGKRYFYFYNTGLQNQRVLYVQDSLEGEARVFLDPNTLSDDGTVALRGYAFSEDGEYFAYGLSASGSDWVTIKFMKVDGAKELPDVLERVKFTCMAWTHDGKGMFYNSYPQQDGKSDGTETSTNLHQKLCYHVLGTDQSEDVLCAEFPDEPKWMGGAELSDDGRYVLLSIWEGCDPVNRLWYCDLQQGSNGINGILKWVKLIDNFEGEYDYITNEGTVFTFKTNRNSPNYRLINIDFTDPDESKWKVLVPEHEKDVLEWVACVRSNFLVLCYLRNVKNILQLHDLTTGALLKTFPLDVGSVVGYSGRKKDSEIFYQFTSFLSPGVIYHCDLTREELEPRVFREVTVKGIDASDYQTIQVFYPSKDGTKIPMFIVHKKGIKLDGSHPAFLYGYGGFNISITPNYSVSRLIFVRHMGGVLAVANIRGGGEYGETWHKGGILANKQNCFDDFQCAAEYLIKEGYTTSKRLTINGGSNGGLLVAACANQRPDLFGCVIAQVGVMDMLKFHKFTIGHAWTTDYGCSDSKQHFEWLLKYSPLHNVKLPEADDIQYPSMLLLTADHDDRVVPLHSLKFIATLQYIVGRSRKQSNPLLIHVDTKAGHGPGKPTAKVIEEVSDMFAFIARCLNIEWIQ
Assay: In vivo inhibition of prolyl-endopeptidase in rat cerebral cortex after IP administration
Settings: 1 mg/kg IP, 30 minutes before preparation of the tissue extract
OBSERVABLE: inhibition at 1 mg/kg (%)

Request: Query inhibition at 1 mg/kg on prolyl-endopeptidase in rat cerebral cortex (Rattus norvegicus) for `O=C([C@@H]1C[C@@H]2CCCC[C@@H]2N1C(=O)[C@@H]1C[C@H]1c1cccc(C(F)(F)F)c1)N1CCCC1`
Response: 58

Request: Query inhibition at 1 mg/kg on prolyl-endopeptidase in rat cerebral cortex (Rattus norvegicus) for `O=C([C@@H]1C[C@@H]2CCCC[C@@H]2N1C(=O)[C@@H]1C[C@H]1c1cccs1)N1CCCC1`
Response: 59

Request: Query inhibition at 1 mg/kg on prolyl-endopeptidase in rat cerebral cortex (Rattus norvegicus) for O=C([C@@H]1C[C@@H]2CCCC[C@@H]2N1C(=O)C1CC1Cc1ccccc1)N1CCCC1 (single isomer, unassigned)
Response: 41

Request: Query inhibition at 1 mg/kg on prolyl-endopeptidase in rat cerebral cortex (Rattus norvegicus) for `O=C([C@@H]1C2CCC(CC2)N1C(=O)[C@@H]1C[C@H]1c1ccc(F)cc1)N1CCCC1`
Response: 42

Request: Query inhibition at 1 mg/kg on prolyl-endopeptidase in rat cerebral cortex (Rattus norvegicus) for `O=C([C@@H]1C[C@@H]2CCCC[C@@H]2N1C(=O)[C@@H]1C[C@H]1c1ccc(F)cc1)N1CCCC1`
Response: 54

Request: Query inhibition at 1 mg/kg on prolyl-endopeptidase in rat cerebral cortex (Rattus norvegicus) for `O=C([C@@H]1C2CCC(CC2)N1C(=O)[C@@H]1C[C@H]1c1cccc(C(F)(F)F)c1)N1CCCC1`
Response: 49

---

Target: Prolyl-endopeptidase
Sequence (P27028 21-705): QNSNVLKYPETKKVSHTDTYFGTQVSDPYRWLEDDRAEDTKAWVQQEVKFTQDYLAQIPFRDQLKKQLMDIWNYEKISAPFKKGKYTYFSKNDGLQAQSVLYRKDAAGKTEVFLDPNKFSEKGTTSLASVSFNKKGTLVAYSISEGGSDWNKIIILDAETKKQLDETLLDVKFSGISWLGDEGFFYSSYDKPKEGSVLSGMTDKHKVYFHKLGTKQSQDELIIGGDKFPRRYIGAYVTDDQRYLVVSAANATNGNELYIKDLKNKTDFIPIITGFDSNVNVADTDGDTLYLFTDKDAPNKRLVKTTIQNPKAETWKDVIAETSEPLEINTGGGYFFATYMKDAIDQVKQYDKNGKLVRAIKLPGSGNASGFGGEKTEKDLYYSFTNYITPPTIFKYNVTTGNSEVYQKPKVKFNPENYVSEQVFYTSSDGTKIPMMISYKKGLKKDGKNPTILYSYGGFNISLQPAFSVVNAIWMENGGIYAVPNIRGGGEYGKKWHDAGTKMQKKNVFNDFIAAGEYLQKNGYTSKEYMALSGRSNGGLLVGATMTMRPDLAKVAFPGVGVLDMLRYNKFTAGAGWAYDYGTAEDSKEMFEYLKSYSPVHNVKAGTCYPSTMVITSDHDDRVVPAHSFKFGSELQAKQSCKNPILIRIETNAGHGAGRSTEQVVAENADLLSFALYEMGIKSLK
Experiment: biochemical
pIC50: −log10 of the molar value.
OBSERVABLE: pIC50

Past entries and their recorded results:
Request: Name the recorded pIC50 for O=C([C@@H]1C2CCC(CC2)N1C(=O)[C@@H]1C[C@H]1c1ccc(F)cc1)N1CCCC1 [Example 2] .
Response: 7.40

Request: Name the recorded pIC50 for O=C([C@@H]1C[C@@H]2CCCC[C@@H]2N1C(=O)[C@@H]1C[C@H]1c1cccs1)N1CCCC1 [Example 3] .
Response: 7.85

(I) O=C([C@@H]1C[C@@H]2CCCC[C@@H]2N1C(=O)[C@@H]1C[C@H]1c1ccc(F)cc1)N1CCCC1 [Example 1]
(II) O=C([C@@H]1C2CCC(CC2)N1C(=O)[C@@H]1C[C@H]1c1cccc(C(F)(F)F)c1)N1CCCC1 [Example 6]
Request: Between the entries labelled I and II , which has a larger pIC50 value on record? API: response body contains the label of the selected item.
Response: II
(II: 8.52, I: 7.85)
